- Assay Remarks: Inhibition against PP1 at 100 uM
Binary classification by inhibition, with 3% as an inclusive lower bound for TRUE; all other cases are FALSE.

| Compound | Label Value |
| --- | --- |
| COC(=O)C1C(C(=O)OC)[C@H]2C=C[C@@H]1O2 (stereo not given in full) | TRUE |
| O=C1OC(=O)C2C1[C@@H]1CC[C@H]2O1 (stereo not given in full) | TRUE |
| O=C1NC(=O)C2C1[C@@H]1C=C[C@H]2S1 (stereo not given in full) | TRUE |
| O=C1OC(=O)C2C1[C@@H]1C=C[C@H]2S1 (stereo not given in full) | FALSE |

// data source = ChEMBL document CHEMBL1135037
